target: biotinylated labeled human GPC3 protein (produced in-house) (human, UniProt P51654 25-559, limits assumed, biotinylated (Dojindo, Cat. No. LK03); sites not stated); assay: ELISA, biotinylated human GPC3 protein
Below, each entry is listed alongside its reported OD450 at 0.11 nM.
Only the number, expressed in OD450, is required.

Below, 4 binders whose answers are already recorded.
binder	display-unit	OD450 at 0.11 nM
hAb005LH3L1b (antibody, human IgG1, V domains shown, Humanized F3.54.12; VH H3 + VL L1b; expressed as human IgG1) VH: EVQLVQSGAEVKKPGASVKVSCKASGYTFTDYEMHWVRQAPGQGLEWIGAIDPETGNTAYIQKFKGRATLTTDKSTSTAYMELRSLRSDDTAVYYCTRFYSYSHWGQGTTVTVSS VL: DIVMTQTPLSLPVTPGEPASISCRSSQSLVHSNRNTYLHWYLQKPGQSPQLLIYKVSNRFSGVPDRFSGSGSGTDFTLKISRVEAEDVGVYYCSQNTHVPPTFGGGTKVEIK	OD450	0.838
hAb005LH3L1 (antibody, human IgG1, V domains shown, Humanized F3.54.12; VH H3 + VL L1; expressed as human IgG1) VH: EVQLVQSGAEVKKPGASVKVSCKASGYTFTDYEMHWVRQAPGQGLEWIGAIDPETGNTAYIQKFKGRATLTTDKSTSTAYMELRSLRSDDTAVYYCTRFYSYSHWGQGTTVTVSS VL: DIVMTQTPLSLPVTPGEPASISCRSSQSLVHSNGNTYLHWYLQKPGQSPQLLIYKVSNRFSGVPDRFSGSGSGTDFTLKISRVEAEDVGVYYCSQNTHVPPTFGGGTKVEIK	OD450	0.715
hAb003LH3L1 (antibody, human IgG1, V domains shown, Humanized F2.154.1; VH H3 + VL L1; expressed as human IgG1) VH: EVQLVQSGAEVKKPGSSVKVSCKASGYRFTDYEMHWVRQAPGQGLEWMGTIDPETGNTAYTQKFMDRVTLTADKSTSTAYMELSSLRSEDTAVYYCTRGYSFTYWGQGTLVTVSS VL: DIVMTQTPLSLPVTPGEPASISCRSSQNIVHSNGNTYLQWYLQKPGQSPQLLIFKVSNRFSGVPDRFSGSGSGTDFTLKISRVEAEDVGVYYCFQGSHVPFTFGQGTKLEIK	OD450	1.89
hAb001H2L1b (antibody, human IgG1, V domains shown, Humanized F2.169.2; VH H2 + VL L1b; expressed as human IgG1) VH: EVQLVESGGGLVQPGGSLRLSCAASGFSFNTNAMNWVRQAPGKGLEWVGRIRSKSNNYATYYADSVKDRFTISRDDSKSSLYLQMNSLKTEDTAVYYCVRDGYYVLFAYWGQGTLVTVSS VL: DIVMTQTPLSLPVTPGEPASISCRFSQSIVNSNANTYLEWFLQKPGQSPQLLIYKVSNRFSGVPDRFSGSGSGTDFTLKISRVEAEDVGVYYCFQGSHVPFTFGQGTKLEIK	OD450	1.94

Alright, here's another binder for you.
Query OD450 at 0.11 nM for hAb001H1aL1 (antibody, human IgG1, V domains shown, Humanized F2.169.2; VH H1a + VL L1; expressed as human IgG1) VH: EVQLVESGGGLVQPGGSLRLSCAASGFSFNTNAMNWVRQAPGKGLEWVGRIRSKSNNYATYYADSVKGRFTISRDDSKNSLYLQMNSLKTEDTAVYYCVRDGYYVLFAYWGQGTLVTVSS VL: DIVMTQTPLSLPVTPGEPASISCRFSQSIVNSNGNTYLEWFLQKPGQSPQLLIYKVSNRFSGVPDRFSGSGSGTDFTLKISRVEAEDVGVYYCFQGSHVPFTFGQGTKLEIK
1.85
